FYI, the data here is from patent US20260242478A1.

Molecular target: T1, PSMA Fab (006 PSMA Fab)
T1 construct: In the phage ELISA the PSMA Fab was biotinylated and captured on neutravidin coated plates; also called Anti-PSMA Fab; anti-PSMA Fab
Experiment: clonal phage ELISA on captured PSMA Fab, wells pre-incubated with PSMA antigen as competitor (column head not shown, assumed)
Where no end group is shown, it is not given here.
Condition met means recorded Phage binding ELISA signal, Anti-PSMA Fab with PSMA antigen is 0.08 or above; Condition not met means it is below 0.08.

For this binder, is measured Phage binding ELISA signal, Anti-PSMA Fab with PSMA antigen 0.08 or higher? VDHWCTPEWMCVMM [Phage-2408]
Condition met

Here is the next binder: YIKWCTPPWMCELM [Phage-2409]
Condition met

Here is the next binder: FDPWCIPLWMCEGM (cysteine pairing not given here; also: displayed on bacteriophage by fusion to pIII) [Phage-2417]
Condition not met

Here is the next binder: GEKWCIPDWMCAAA (cysteine pairing not given here; also: displayed on bacteriophage by fusion to pIII) [Phage-2412]
Condition not met

Here is the next binder: TVKWCVPPWMCSVP [Phage-2407]
Condition not met

Here is the next binder: LDMRCTPAWMCEGF (cysteine pairing not given here; also: displayed on bacteriophage by fusion to pIII) [Phage-2413]
Condition not met
